target: T1, Programmed cell death protein 1 (PD-1), human (human, UniProt Q15116 25-167, limits assumed); assay: SPR affinity measurement, response in nm, four traces
T1 construct: also called full-length PD-1
T1 sequence (Q15116 25-167 limits assumed): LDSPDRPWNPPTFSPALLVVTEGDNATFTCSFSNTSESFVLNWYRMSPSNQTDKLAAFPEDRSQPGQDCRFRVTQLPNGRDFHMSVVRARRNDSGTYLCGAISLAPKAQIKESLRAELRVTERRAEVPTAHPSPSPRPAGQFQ
Readout Type: pKd
As a rule, pKd stands for the negative log10 of the concentration, concentration in M.

Could you please provide reported pKd for 2-D11-1 (antibody, V domains shown, From the in vitro scFv library of immunised mice) VH: EVQLQQPGAELVRPGTSVKLACKASGYTFNTYWMHWVNQRPGQGLEWIGVIDPSDSYTQYNQKFKGKATLTVDTSSSTAYMQLSSLTSEDSAVYYCARSPFDYWGQGTTLTVSS VL: DVQMTQSQKFMSTSVGDRVSVTCKASQNVGTNVAWYQQKPGQSPKALIYSASYRYSGVPDRFIGSGSGTDFTLTISNVQSEDLAEYFCQQHNSYPFTFGGGTKLEIK ? Thanks! 7.82

# return recorded pKd for entry 1-F09-1 (antibody, V domains shown, From the in vitro scFv library of immunised mice) VH: QVQLQQPGAEVVMPGASVKLSCKASGYTFTSYWMHWVKQRPGQGLEWIGVIDPSDSYTQYNQKFKGKATLTVDTSSSTAYMQLSSLTSEDSAVYYCARSPFDYWGQGTTLTVSS VL: DIQMNQSHKFMSTSVGDRVSITCKASQDVSTAVAWYQQKPGQSPKALIYSASNRYSGVPDRFIGSGSGTDFTLTIRNVQSEDLAEYFCQQHNSYPFTFGGGTKLEMK 7.89

Input 1-F12-1 (antibody, V domains shown, From the in vitro scFv library of immunised mice) VH: EVQLQQPGAELVRPGTSVKLSCKASGYTFTSYWMHWVKQRPGQGLEWIGVIDPSDSYTQYNQKFKGKATLTVDTSSSTAYMQLSSLTSEDSAVYYCARSPFDYWGQGTTVTVSS VL: DIVMTQSHKFMSTSVGDRVSITCKASQDVSTAVAWYQQKPGQSPKALIYSASYRYSGVPDRFTGSGSGTDFTLTISNVQAEDLAVYYCHQHNTYPFTFGGGTKLEIK , output reported pKd. 7.68

Determine its reported pKd: 1-C09-1 (antibody, V domains shown, From the in vitro scFv library of immunised mice) VH: QVQLQQPGTELVRPGTSVKMSCKASGYTFTSYWMHWVKQRPGQGLEWIGVIDPSDSYTQYNQKFKGKATLTVDTSSSTAYMQLSSLTSEDSAVYYCARSPFDYWGQGTTLTVSS VL: DIVMTQSQKFMSTSVGDRVSVTCKASQNVGTNVAWYQQKPGQSPKALIYSASYRYSGIPDRFTGSGSGTDFTLTISNVQSEDLADFFCQQYNSYPFTFGGGTKLEIK 6.82
